# tested_target: apomyoglobin (Physeter macrocephalus, UniProt P02185)
# Construct: purchased
# Sequence (P02185 whole entry): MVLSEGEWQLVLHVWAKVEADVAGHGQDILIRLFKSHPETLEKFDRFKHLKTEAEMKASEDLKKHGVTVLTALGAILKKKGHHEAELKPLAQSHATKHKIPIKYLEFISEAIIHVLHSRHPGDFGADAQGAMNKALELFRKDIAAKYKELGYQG
# experiment_summary: Hydrolysis of p-nitrophenyl alkanoates catalysed by apomyoglobin (absorbance at 400 nm)
# Type: biochemical, sperm whale
# applied_conditions: Lineweaver Burk; 25° C., pH 8
recorded_endpoint: K2 (s⁻¹)
// return numeric value only (unit: s⁻¹, not printed)

Examples from the recorded data:
> print(dat)
                                   molecule  recorded.endpoint  measurement.unit  reported.value
1  CCCC(=O)Oc1ccc([N+](=O)[O-])cc1 [Butyrate]                 K2               s⁻¹          0.0038
2  CCCCCCCCCC(=O)Oc1ccc([N+](=O)[O-])cc1 [Caprate]                 K2               s⁻¹            0.03
3  CCCCCC(=O)Oc1ccc([N+](=O)[O-])cc1 [Caproate, p-nitrophenyl caproate]                 K2               s⁻¹          0.0493

// switching to the query molecule
**Query** Please report the recorded K2 for CC(=O)Oc1ccc([N+](=O)[O-])cc1 [Acetate, p-nitrophenyl acetate] .
**Result** 0.0058

---

k2 /Kun (enhancement over rate in the absence of apomyoglobin) values for the compounds below.
# tested_target: apomyoglobin (Physeter macrocephalus)
# Construct: purchased
# experiment_summary: Hydrolysis of p-nitrophenyl alkanoates catalysed by apomyoglobin (absorbance at 400 nm)
# Format: biochemical, sperm whale
# applied_conditions: 25° C., pH 8
Format: numeric value only, no unit, no commentary.

> print(dat)
                                   compound  reported.value
1            CCC(=O)Oc1ccc([N+](=O)[O-])cc1              42
2  CCCCCC(=O)Oc1ccc([N+](=O)[O-])cc1 [Caproate, p-nitrophenyl caproate]            1800
3  CCCC(=O)Oc1ccc([N+](=O)[O-])cc1 [Butyrate]             127
4  CC(=O)Oc1ccc([N+](=O)[O-])cc1 [Acetate, p-nitrophenyl acetate]             134

// switching to the query compound
**Query** Please report the recorded k2 /Kun (enhancement over rate in the absence of apomyoglobin) for CCCCCCCCCC(=O)Oc1ccc([N+](=O)[O-])cc1 [Caprate] .
**Result** 4600

---

# tested_target: apomyoglobin (Physeter macrocephalus, UniProt P02185)
# Construct: purchased
# experiment_summary: Hydrolysis of p-nitrophenyl alkanoates catalysed by apomyoglobin (absorbance at 400 nm)
# Format: biochemical, sperm whale
# applied_conditions: 25° C., pH 8
k2 /KM (catalytic constant) values for the molecules below.
// return numeric value only (unit: M⁻¹ s⁻¹, not printed)

**Query** Please report the recorded k2 /KM (catalytic constant) for CCCCCC(=O)Oc1ccc([N+](=O)[O-])cc1 [Caproate, p-nitrophenyl caproate] .
**Result** 67

**Query** Please report the recorded k2 /KM (catalytic constant) for CCCCCCCCCC(=O)Oc1ccc([N+](=O)[O-])cc1 [Caprate] .
**Result** 49

**Query** Please report the recorded k2 /KM (catalytic constant) for CCCC(=O)Oc1ccc([N+](=O)[O-])cc1 [Butyrate] .
**Result** 26.4

**Query** Please report the recorded k2 /KM (catalytic constant) for CC(=O)Oc1ccc([N+](=O)[O-])cc1 [Acetate, p-nitrophenyl acetate] .
**Result** 13.5

**Query** Please report the recorded k2 /KM (catalytic constant) for CCC(=O)Oc1ccc([N+](=O)[O-])cc1 .
**Result** 6.4

The measurements presented in this section are drawn from patent US4764464A.
